Record form. Attribute: three bp AT sites found in the top 50 sequences. Fill in for each entry.
test system: library of 512 hairpin deoxyoligonucleotides containing all possible five bp sequences; assay: Fluorescent intercalator displacement (ethidium bromide) assay, 96-well, 512-member hairpin library; type: binding; conditions: share of the 80 three bp AT sites; 512 hairpins
Answers are plain numbers, in %.

A selection of reference data follows.
compound	measValue
Cl.Cl.N=C(N)c1ccc(-c2cc3ccc(C(=N)N)cc3[nH]2)cc1 [DAPI, 4′,6-Diamidine-2-phenylindole.2HCl]	14
Cn1cc(NC(=O)c2cc(NC(=O)CN=C(N)N)cn2C)cc1C(=O)NCCC(=N)N	9
Cn1cc(NC(=O)c2cc(NC(=O)c3cc(NC=O)cn3C)cn2C)cc1C(=O)NCCC(=N)N	13

Can you look up the measured three bp AT sites found in the top 50 sequences of `CC(=O)NCC(=O)O.CC(=O)NCC(=O)O.N=C(N)c1ccc(N=NNc2ccc(C(=N)N)cc2)cc1` for me?
15

---

Test system: library of 512 hairpin deoxyoligonucleotides containing all possible five bp sequences
Assay: Fluorescent intercalator displacement (ethidium bromide) assay, 96-well, 512-member hairpin library
Assay type: binding
Details: share of the 32 four bp AT sites; 512 hairpins
Procedure: Ethidium Bromide Assay. […] Prior to use, each deoxyoligonucleotide was diluted to […] in water and stored at 0° C. for no longer than two days. […] Fluorescence readings are reported as % fluorescence relative to the control wells. Fluorescence plate readers show a variability of ±10%, but surface effects (i.e bubbles, dust) may contribute to larger variations requiring a second set of measurements. […]
Record form. Attribute: four bp AT sites found in the top 50 sequences. Fill in for each entry.

molecule	measValue
CN1CCN(c2ccc3[nH]c(-c4ccc5[nH]c(-c6ccc(O)cc6)nc5c4)nc3c2)CC1	59%
Cl.Cl.N=C(N)c1ccc(-c2cc3ccc(C(=N)N)cc3[nH]2)cc1 [DAPI, 4′,6-Diamidine-2-phenylindole.2HCl]	72%
Cn1cc(NC(=O)c2cc(NC(=O)c3cc(NC=O)cn3C)cn2C)cc1C(=O)NCCC(=N)N	47%

Report four bp AT sites found in the top 50 sequences for every entry below.
1. Cn1cc(NC(=O)c2cc(NC(=O)CN=C(N)N)cn2C)cc1C(=O)NCCC(=N)N
2. CC(=O)NCC(=O)O.CC(=O)NCC(=O)O.N=C(N)c1ccc(N=NNc2ccc(C(=N)N)cc2)cc1

84%
66%
